- assay system: T1, Spindlin4 (human)
- T1 construct: human Spindlin4; Construct, host and purification of the Spindlin4 used for ITC are told nowhere
- T1 chain: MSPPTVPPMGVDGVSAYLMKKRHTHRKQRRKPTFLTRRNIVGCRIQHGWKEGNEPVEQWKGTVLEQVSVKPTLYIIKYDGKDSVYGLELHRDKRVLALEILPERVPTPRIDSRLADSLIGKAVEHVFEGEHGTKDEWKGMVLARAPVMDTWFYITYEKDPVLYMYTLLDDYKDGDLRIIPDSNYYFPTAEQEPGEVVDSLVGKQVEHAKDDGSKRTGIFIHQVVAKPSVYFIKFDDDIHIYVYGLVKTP
- procedure text: ITC; 25 °C, MicroCal ITC200; 20 mM HEPES pH 7.5, 150 mM NaCl; 0.8 mM H3 peptide injected into 50 μM protein or complex in the sample cell
- setup conditions: both partners purified
Ends that are not written are not given here. Me3 = trimethyl group on lysine (trimethyl-lysine)
measured endpoint: Kd (nM)
# output: bare number, implied unit nM

query: I would be grateful if you could share the reported Kd for ARTK(Me3)QTARK(Me3)STG (histone H3 N-terminal tail, residues 1-12; also called H3K4me3K9me3 (A1-G12) peptide) [H3K4me3K9me3 peptide, H3 (1-12)] .
result: 41

Each recorded value in this set is attributed to paper PMC7878818.
